species: Rattus norvegicus; test: Open TG-GATES - Regimen: Single; type: toxicity, organism-based, Sprague-Dawley; set-up: regimen Single, gender Male, age 6 weeks; details: in vivo, po, 10 mg/kg, 3 h, tissue Blood, route gavage, dose level Low
Measured Quantity: Ht (%)
Answers are plain numbers, in %.

Known results for compounds:
CN(C)CCCN1c2ccccc2CCc2ccccc21 :: 42.9
CN(C)CCN(Cc1cccs1)c1ccccn1 :: 40.7
CC(C)OC(=O)C(C)(C)Oc1ccc(C(=O)c2ccc(Cl)cc2)cc1 [FENOFIBRATE] :: 40.3
CN(C)CCCN1c2ccccc2CCc2ccc(Cl)cc21 :: 43.3

Inquiry: Fill in: Ht of CC1=C(/C=C/C(C)=C/C=C/C(C)=C/CO)C(C)(C)CCC1 is ___
Reply text: 37.7

====

species on record: Rattus norvegicus; experiment: Open TG-GATES - Regimen: Single; assay type: toxicity, organism-based, Sprague-Dawley; set-up: regimen Single, gender Male, age 6 weeks; conditions: in vivo, po, 0 mg/kg, 24 h, tissue Blood, route gavage, dose level Control
Please respond with reported MCH for every item in the list.
Answers are plain numbers, in pg.

Known results for molecules:
NNC(=O)c1ccncc1 [ISONIAZID] :: 22.6
CCOc1ccc(NC(=O)CC(C)O)cc1 (configuration not stated) [BUCETIN] :: 21.3
COc1cc2c(c(OC)c1OC)-c1ccc(OC)c(=O)cc1[C@@H](NC(C)=O)CC2 [COLCHICINE] :: 21.7

# batch: return MCH for each of the 2 molecules below
1. COc1ccc2[nH]c([S+]([O-])Cc3ncc(C)c(OC)c3C)nc2c1 (configuration not stated) [OMEPRAZOLE]
2. CC/C(=C(\c1ccccc1)c1ccc(OCCN(C)C)cc1)c1ccccc1 [TAMOXIFEN]

Reply text:
1: 21.7; 2: 21.5

# batch: return MCH for each of the 2 molecules below
1. Cc1ccc(C)c(OCCCC(C)(C)C(=O)O)c1 [GEMFIBROZIL]
2. NC(N)=Nc1nc(CSCCC(N)=NS(N)(=O)=O)cs1 [FAMOTIDINE]

Reply text:
1: 21.7; 2: 22.5

====

species on record: Rattus norvegicus; assay: Open TG-GATES - Regimen: Daily Repeat; type: toxicity, organism-based, Sprague-Dawley; design: regimen Daily Repeat, gender Male, age 6 weeks; conditions: in vivo, po, 100 mg/kg, 72 h, tissue Plasma, route gavage, dose level Low, time 3 day
Assign Fulfilled whenever TG does not fall below 70 mg/dL; assign Not fulfilled whenever it does.

Consider the following illustrative entries.
COC1=CC(=O)C[C@@H](C)[C@]12Oc1c(Cl)c(OC)cc(OC)c1C2=O :: Not fulfilled
CCOC(=O)CCC(=O)O[C@H]1[C@H](O[C@@H]2[C@@H](C)[C@H](O[C@H]3C[C@@](C)(OC)[C@@H](O)[C@H](C)O3)[C@@H](C)C(=O)O[C@H](CC)[C@@](C)(O)[C@H](O)[C@@H](C)C(=O)[C@H](C)C[C@@]2(C)O)O[C@H](C)C[C@@H]1N(C)C [ERYTHROMYCIN ETHYLSUCCINATE] :: Fulfilled
CCOc1ccc(NC(=O)CC(C)O)cc1 (stereo not given) :: Fulfilled
NC(N)=Nc1nc(CSCCC(N)=NS(N)(=O)=O)cs1 :: Not fulfilled

Now take the following molecule into account.
Inquiry: Could you tell me if the measured TG of COc1ccc2[nH]c([S+]([O-])Cc3ncc(C)c(OC)c3C)nc2c1 (stereo not given) reaches 70 mg/dL or more?
Reply text: Fulfilled

====

organism: Rattus norvegicus; assay: Open TG-GATES - Regimen: Single; assay type: toxicity, organism-based, Sprague-Dawley; design: regimen Single, gender Male, age 6 weeks; conditions: in vivo, po, 0 mg/kg, 3 h, tissue Kidney, route gavage, dose level Control
Please respond with reported KIDNEY_L for every item in the list.
Answers are plain numbers, in g.

Known results for compounds:
NNC(=O)c1ccncc1 [ISONIAZID] :: 1
CCOC(=O)CCC(=O)O[C@H]1[C@H](O[C@@H]2[C@@H](C)[C@H](O[C@H]3C[C@@](C)(OC)[C@@H](O)[C@H](C)O3)[C@@H](C)C(=O)O[C@H](CC)[C@@](C)(O)[C@H](O)[C@@H](C)C(=O)[C@H](C)C[C@@]2(C)O)O[C@H](C)C[C@@H]1N(C)C [ERYTHROMYCIN ETHYLSUCCINATE] :: 0.9
COc1cc2c(c(OC)c1OC)-c1ccc(OC)c(=O)cc1[C@@H](NC(C)=O)CC2 [COLCHICINE] :: 1
CN(C)CCCN1c2ccccc2CCc2ccccc21 [IMIPRAMINE] :: 0.9
CCCNC(=O)NS(=O)(=O)c1ccc(Cl)cc1 [CHLORPROPAMIDE] :: 0.9
CN(C)CCCN1c2ccccc2CCc2ccc(Cl)cc21 [CLOMIPRAMINE] :: 1
COC1=CC(=O)C[C@@H](C)[C@]12Oc1c(Cl)c(OC)cc(OC)c1C2=O [GRISEOFULVIN] :: 1
Cc1ccc(C)c(OCCCC(C)(C)C(=O)O)c1 [GEMFIBROZIL] :: 1

# batch: return KIDNEY_L for each of the 5 compounds below
1. NC(N)=Nc1nc(CSCCC(N)=NS(N)(=O)=O)cs1 [FAMOTIDINE]
2. CCOc1ccc(NC(=O)CC(C)O)cc1 (configuration not stated) [BUCETIN]
3. CN(C)CCN(Cc1cccs1)c1ccccn1
4. CN1C(=O)CN=C(c2ccccc2)c2cc(Cl)ccc21 [DIAZEPAM]
5. O=C(CCCN1CCC(O)(c2ccc(Cl)cc2)CC1)c1ccc(F)cc1 [HALOPERIDOL]

Reply text:
1
0.9
0.8
1
1

====

species: Rattus norvegicus; test: Open TG-GATES - Regimen: Daily Repeat; format: toxicity, organism-based, Sprague-Dawley; parameters: regimen Daily Repeat, gender Male, age 6 weeks; details: in vivo, po, 100 mg/kg, […], tissue Plasma, route gavage, dose level Low, time 14 day
Measured Quantity: AST (IU/L)
Numbers only, in IU/L.

Known results for compounds:
CCOc1ccc(NC(=O)CC(C)O)cc1 (stereo not given) [BUCETIN] :: 62.6
NC(N)=Nc1nc(CSCCC(N)=NS(N)(=O)=O)cs1 [FAMOTIDINE] :: 64.4
COC1=CC(=O)C[C@@H](C)[C@]12Oc1c(Cl)c(OC)cc(OC)c1C2=O [GRISEOFULVIN] :: 57.4
COc1ccc2[nH]c([S+]([O-])Cc3ncc(C)c(OC)c3C)nc2c1 (stereo not given) [OMEPRAZOLE] :: 66.4

# ---- query compound ----
Inquiry: Fill in: AST of CCOC(=O)CCC(=O)O[C@H]1[C@H](O[C@@H]2[C@@H](C)[C@H](O[C@H]3C[C@@](C)(OC)[C@@H](O)[C@H](C)O3)[C@@H](C)C(=O)O[C@H](CC)[C@@](C)(O)[C@H](O)[C@@H](C)C(=O)[C@H](C)C[C@@]2(C)O)O[C@H](C)C[C@@H]1N(C)C [ERYTHROMYCIN ETHYLSUCCINATE] is ___
Reply text: 66

====

organism: Rattus norvegicus; assay: Open TG-GATES - Regimen: Daily Repeat; assay type: toxicity, organism-based, Sprague-Dawley; design: regimen Daily Repeat, gender Male, age 6 weeks; conditions: in vivo, po, 10 mg/kg, […], route gavage, dose level Low, time 7 day
Measured Quantity: TERMINAL_BW
// return the numeric value with its unit appended

CC(C)OC(=O)C(C)(C)Oc1ccc(C(=O)c2ccc(Cl)cc2)cc1 [FENOFIBRATE] :: 253.9 g
CN(C)CCCN1c2ccccc2CCc2ccccc21 [IMIPRAMINE] :: 262.8 g
CC1=C(/C=C/C(C)=C/C=C/C(C)=C/CO)C(C)(C)CCC1 [RETINOL] :: 257.9 g

# ---- query compound ----
Inquiry: Fill in: TERMINAL_BW of CN(C)CCN(Cc1cccs1)c1ccccn1 is ___
Reply text: 229.9 g

====

Please respond with reported CRE for every item in the list.
species: Rattus norvegicus; assay: Open TG-GATES - Regimen: Daily Repeat; format: toxicity, organism-based, Sprague-Dawley; design: regimen Daily Repeat, gender Male, age 6 weeks; conditions: in vivo, po, 100 mg/kg, […], tissue Plasma, route gavage, dose level Low, time 14 day
// return the numeric value with its unit appended

Known results for compounds:
NC(N)=Nc1nc(CSCCC(N)=NS(N)(=O)=O)cs1 [FAMOTIDINE] :: 0.5 mg/dL
COC1=CC(=O)C[C@@H](C)[C@]12Oc1c(Cl)c(OC)cc(OC)c1C2=O [GRISEOFULVIN] :: 0.5 mg/dL
CCOc1ccc(NC(=O)CC(C)O)cc1 (stereo not given) [BUCETIN] :: 0.2 mg/dL
CCOC(=O)CCC(=O)O[C@H]1[C@H](O[C@@H]2[C@@H](C)[C@H](O[C@H]3C[C@@](C)(OC)[C@@H](O)[C@H](C)O3)[C@@H](C)C(=O)O[C@H](CC)[C@@](C)(O)[C@H](O)[C@@H](C)C(=O)[C@H](C)C[C@@]2(C)O)O[C@H](C)C[C@@H]1N(C)C [ERYTHROMYCIN ETHYLSUCCINATE] :: 0.2 mg/dL

Inquiry: Fill in: CRE of COc1ccc2[nH]c([S+]([O-])Cc3ncc(C)c(OC)c3C)nc2c1 (stereo not given) [OMEPRAZOLE] is ___
Reply text: 0.5 mg/dL

Source of measurements: ChEMBL document CHEMBL3885861
